Value source: patent US5028614A

Molecular target: α-glucosidase I
Assay: Microtiter plate assay for α-glucosidase I activity
Conditions: [3H]G3M9N substrate, purified α-glucosidase I, pH 6.8, 37° C., one hour
Where a name gives a salt, the structure may show the parent alone.
RECORDED ENDPOINT: IC50 (nM)

- COMPOUND: "O=C(O[C@H]1CCCN2[C@H]1[C@H](O)[C@@H](O)[C@H](O)[C@H]2CO)c1ccccc1"
  TARGET SYSTEM: "α-glucosidase I"
  VALUE: 29000
- COMPOUND: "OC[C@@H]1[C@@H](O)[C@H](O)[C@@H](O)[C@H]2CCCN21"
  TARGET SYSTEM: "α-glucosidase I"
  VALUE: 300
- COMPOUND: "OC[C@@H]1[C@@H](O)[C@H](O)[C@@H](O)[C@H]2[C@@H](O)CCCN21 [Compound XXI, hydrochloride]"
  TARGET SYSTEM: "α-glucosidase I"
  VALUE: 150
